Biological target: Centromere-associated protein E (Homo sapiens, UniProt Q02224)
Sequence (Q02224 whole entry): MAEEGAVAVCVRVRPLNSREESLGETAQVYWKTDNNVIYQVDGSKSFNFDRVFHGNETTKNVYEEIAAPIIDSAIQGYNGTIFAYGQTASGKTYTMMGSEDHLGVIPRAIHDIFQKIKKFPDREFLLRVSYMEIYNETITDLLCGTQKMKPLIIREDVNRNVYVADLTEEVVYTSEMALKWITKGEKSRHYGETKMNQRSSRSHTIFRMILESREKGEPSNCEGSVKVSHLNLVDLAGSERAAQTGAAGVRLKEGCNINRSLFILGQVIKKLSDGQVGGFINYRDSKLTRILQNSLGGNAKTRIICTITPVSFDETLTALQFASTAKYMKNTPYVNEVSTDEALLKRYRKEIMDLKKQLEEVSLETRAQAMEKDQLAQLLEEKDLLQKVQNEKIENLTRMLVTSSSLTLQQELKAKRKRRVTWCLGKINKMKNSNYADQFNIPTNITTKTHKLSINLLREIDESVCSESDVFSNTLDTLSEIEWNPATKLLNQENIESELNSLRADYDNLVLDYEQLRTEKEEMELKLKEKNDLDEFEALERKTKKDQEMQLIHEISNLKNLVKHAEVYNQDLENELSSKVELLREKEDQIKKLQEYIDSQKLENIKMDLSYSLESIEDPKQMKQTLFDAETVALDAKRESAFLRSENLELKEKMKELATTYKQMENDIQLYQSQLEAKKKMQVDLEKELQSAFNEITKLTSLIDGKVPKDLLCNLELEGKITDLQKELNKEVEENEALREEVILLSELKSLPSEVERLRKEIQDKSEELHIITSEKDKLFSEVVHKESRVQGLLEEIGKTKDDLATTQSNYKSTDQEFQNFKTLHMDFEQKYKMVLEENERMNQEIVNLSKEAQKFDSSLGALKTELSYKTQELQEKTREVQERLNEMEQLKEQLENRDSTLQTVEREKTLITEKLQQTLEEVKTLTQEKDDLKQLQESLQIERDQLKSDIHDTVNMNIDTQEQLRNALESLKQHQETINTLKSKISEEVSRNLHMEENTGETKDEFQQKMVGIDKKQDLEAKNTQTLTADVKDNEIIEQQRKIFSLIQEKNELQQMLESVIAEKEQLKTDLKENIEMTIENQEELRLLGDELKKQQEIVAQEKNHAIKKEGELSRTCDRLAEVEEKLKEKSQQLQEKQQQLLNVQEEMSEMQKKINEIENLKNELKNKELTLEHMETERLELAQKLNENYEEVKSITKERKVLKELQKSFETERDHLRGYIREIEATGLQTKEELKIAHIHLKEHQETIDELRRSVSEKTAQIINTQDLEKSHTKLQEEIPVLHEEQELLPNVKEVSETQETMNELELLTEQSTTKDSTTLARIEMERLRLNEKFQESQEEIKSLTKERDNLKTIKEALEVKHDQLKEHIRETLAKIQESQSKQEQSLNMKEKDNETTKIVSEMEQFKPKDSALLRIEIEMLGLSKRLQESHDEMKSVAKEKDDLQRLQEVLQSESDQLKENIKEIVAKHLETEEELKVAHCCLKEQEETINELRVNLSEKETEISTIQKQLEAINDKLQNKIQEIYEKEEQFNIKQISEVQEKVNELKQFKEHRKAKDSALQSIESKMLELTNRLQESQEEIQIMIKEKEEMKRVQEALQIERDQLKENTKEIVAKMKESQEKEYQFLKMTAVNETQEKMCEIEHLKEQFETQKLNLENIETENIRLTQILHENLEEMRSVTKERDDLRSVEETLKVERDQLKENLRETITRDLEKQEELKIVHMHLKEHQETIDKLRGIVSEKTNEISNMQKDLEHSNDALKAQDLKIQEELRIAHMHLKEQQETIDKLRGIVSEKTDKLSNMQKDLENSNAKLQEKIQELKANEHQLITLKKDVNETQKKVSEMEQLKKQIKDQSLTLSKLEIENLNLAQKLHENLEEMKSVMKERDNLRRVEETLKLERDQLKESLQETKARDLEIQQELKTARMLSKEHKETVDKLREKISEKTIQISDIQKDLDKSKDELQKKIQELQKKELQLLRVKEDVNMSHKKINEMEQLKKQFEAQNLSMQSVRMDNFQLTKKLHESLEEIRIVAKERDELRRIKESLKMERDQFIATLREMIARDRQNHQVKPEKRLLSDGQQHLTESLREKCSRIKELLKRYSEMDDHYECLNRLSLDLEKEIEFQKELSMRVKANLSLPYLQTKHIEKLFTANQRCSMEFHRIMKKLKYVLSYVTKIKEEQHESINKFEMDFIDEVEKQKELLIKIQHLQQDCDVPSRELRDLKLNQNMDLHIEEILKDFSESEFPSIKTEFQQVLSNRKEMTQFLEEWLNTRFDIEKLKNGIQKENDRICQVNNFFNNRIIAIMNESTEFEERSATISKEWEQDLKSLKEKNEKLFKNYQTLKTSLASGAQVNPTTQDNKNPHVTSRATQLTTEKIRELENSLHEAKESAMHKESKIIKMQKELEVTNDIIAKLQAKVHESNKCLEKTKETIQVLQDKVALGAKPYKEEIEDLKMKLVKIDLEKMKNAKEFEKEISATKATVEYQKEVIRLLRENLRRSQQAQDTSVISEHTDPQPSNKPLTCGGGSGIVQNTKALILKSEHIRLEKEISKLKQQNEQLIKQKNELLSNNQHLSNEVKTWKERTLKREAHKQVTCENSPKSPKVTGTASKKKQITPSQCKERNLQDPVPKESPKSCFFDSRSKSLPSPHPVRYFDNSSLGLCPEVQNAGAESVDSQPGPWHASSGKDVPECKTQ
Test: Inhibition of recombinant GST-tagged human CENP-E assessed as inhibition of microtubule-stimulated ATPase activity preincubated for 30 mins followed by ATP addition and further incubated for 15 mins by ADP-Glo reagent based assay
pIC50: −log10 of the molar value.

[
  {
    "compound.string": "O=C(Nc1cccc(S(=O)(=O)C2CCCC2)c1)c1cccnc1N1CCCCC1",
    "pIC50": "< 4.00"
  },
  {
    "compound.string": "CC(C)(C)NS(=O)(=O)c1cccc(NC(=O)c2ncc(NS(C)(=O)=O)nc2N2CCC3(CC2)CC3)n1",
    "pIC50": 4.07
  },
  {
    "compound.string": "O=C(Nc1cccc(S(=O)(=O)N2CCCCC2)c1)c1cn[nH]c1-c1ccc(Cl)cc1",
    "pIC50": "< 4.00"
  }
]
